Test system: Debaryomyces hansenii
Method Summary: Antimicrobial activity against Debaryomyces hansenii IFO 18 after 48 hrs by agar dilution method
Format: functional
Study Conditions: IFO 18, 48 h
Give MIC for every item shown.
Note: unit µg/mL is implicit; provide only the numeric part.

**Q:** Entry "C[C@H]1CC[C@@]2(OC1)O[C@H]1C[C@H]3[C@@H]4CC[C@@H]5C[C@@H](O[C@@H]6O[C@H](CO)[C@H](O)[C@H](O[C@@H]7O[C@H](CO)[C@@H](O)[C@H](O)[C@H]7O)[C@H]6O[C@@H]6O[C@H](CO)[C@@H](O)[C@H](O)[C@H]6O)CC[C@]5(C)[C@H]4CC[C@]3(C)[C@H]1[C@@H]2C" needs its MIC filled in; supply it.
**A:** 6.25

**Q:** Entry "C=C1CC[C@@]2(OC1)O[C@H]1C[C@H]3[C@@H]4CC[C@@H]5C[C@@H](O[C@@H]6O[C@H](CO)[C@@H](O)[C@H](O[C@@H]7OC[C@@H](O)[C@H](O)[C@H]7O)[C@H]6O[C@@H]6O[C@H](CO)[C@@H](O)[C@H](O)[C@H]6O)CC[C@]5(C)[C@H]4CC[C@]3(C)[C@H]1[C@@H]2C" needs its MIC filled in; supply it.
**A:** 6.25

###

System: Wickerhamomyces anomalus
Method Summary: Antimicrobial activity against Hansenula anomala HUT 7083 after 48 hrs by agar dilution method
Format: functional
Measure: MIC (µg/mL)
Note: unit µg/mL is implicit; provide only the numeric part.

**Q:** Entry CC1CC[C@@]2(OC1)O[C@H]1C[C@H]3[C@@H]4CC[C@@H]5C[C@@H](O[C@@H]6O[C@H](CO)[C@@H](O)[C@H](O[C@@H]7OC[C@@H](O)[C@H](O)[C@H]7O)[C@H]6O[C@@H]6O[C@H](CO)[C@@H](O)[C@H](O)[C@H]6O)CC[C@]5(C)[C@H]4CC(=O)[C@]3(C)[C@H]1[C@@H]2C (mixture of isomers) needs its MIC filled in; supply it.
**A:** 100

###

Tested on: Debaryomyces hansenii
Method Summary: Antimicrobial activity against Debaryomyces hansenii IFO 18 after 48 hrs by agar dilution method
Assay type: functional
Study Conditions: IFO 18, 48 h
Measure: MIC (µg/mL)
Note: unit µg/mL is implicit; provide only the numeric part.

**Q:** Entry CC1CC[C@@]2(OC1)O[C@H]1C[C@H]3[C@@H]4CC[C@@H]5C[C@@H](O[C@@H]6O[C@H](CO)[C@H](O)[C@H](O[C@@H]7OC[C@@H](O)[C@H](O)[C@H]7O)[C@H]6O[C@@H]6O[C@H](CO)[C@@H](O)[C@H](O)[C@H]6O)[C@@H](O)C[C@]5(C)[C@H]4CC[C@]3(C)[C@H]1[C@@H]2C (some centres not stated) needs its MIC filled in; supply it.
**A:** 100

###

System: Candida albicans
Method Summary: Antimicrobial activity against Candida albicans TIMM 0134 after 48 hrs by agar dilution method
Assay type: functional
Give MIC for every item shown.
Note: unit µg/mL is implicit; provide only the numeric part.

**Q:** Entry "C=C1CC[C@@]2(OC1)O[C@H]1C[C@H]3[C@@H]4CC[C@@H]5C[C@@H](O[C@@H]6O[C@H](CO)[C@@H](O)[C@H](O[C@@H]7OC[C@@H](O)[C@H](O)[C@H]7O)[C@H]6O[C@@H]6O[C@H](CO)[C@@H](O)[C@H](O)[C@H]6O)CC[C@]5(C)[C@H]4CC[C@]3(C)[C@H]1[C@@H]2C" needs its MIC filled in; supply it.
**A:** 6.25

**Q:** Entry CC1CC[C@@]2(OC1)O[C@H]1C[C@H]3[C@@H]4CC[C@@H]5C[C@@H](O[C@@H]6O[C@H](CO)[C@@H](O)[C@H](O[C@@H]7OC[C@@H](O)[C@H](O)[C@H]7O)[C@H]6O[C@@H]6O[C@H](CO)[C@@H](O)[C@H](O)[C@H]6O)CC[C@]5(C)[C@H]4CC[C@]3(C)[C@H]1[C@@H]2C (mixture of isomers) needs its MIC filled in; supply it.
**A:** 50

**Q:** Entry "C[C@H]1CC[C@@]2(OC1)O[C@H]1C[C@H]3[C@@H]4CC[C@@H]5C[C@@H](O[C@@H]6O[C@H](CO)[C@@H](O)[C@H](O)[C@H]6O[C@@H]6O[C@H](CO)[C@@H](O)[C@H](O)[C@H]6O)CC[C@]5(C)[C@H]4CC[C@]3(C)[C@H]1[C@@H]2C" needs its MIC filled in; supply it.
**A:** 12.5
